Quick list: Relative Activity value higher than the control peptide per entry.
# System: A375Pβ6 cells
# Format: cell-based
Give the number; % is assumed, so skip it.

{"substance": "H2N-nK(Biotin)VPNLRGDLQVLAQKVART-OH [Peptide 19]", "systemName": "A375Pβ6 cells", "result": 27}

Inquiry: Fill blank: measured Relative Activity value higher than the control peptide of the substance H2N-NK(Biotin)VPNLRGDLQVLAQKVART-NH2 [Peptide 17] is ____.
Reply text: 31

Inquiry: Input AcHN-NK(Biotin)VPNLRGDLQVLAQKVART-NH2 [Peptide 18]
Reply text: 9

Inquiry: Input H2N-nK(Biotin)VPNLRGDLQVLAQKVARt-OH [Peptide 21]
Reply text: 37

Inquiry: Input AcHN-NK(Biotin)VPNLRGDLQVLAQKVART-OH [Peptide 16]
Reply text: 55

----------
Quick list: A) Affinity: mean activity relative to biotinylated A20FMDV2 (100 nM) per entry.
# systemName: αvβ6 integrin (A375Pβ6 cells) (Homo sapiens, UniProt P06756+P18564)
# Construct: expressed in transfected cells; host or cells: A375Pβ6 (transduced A375P melanoma cells; control line A375Ppuro)
# Sequence (P06756 31-889 limits assumed, stated change not applied): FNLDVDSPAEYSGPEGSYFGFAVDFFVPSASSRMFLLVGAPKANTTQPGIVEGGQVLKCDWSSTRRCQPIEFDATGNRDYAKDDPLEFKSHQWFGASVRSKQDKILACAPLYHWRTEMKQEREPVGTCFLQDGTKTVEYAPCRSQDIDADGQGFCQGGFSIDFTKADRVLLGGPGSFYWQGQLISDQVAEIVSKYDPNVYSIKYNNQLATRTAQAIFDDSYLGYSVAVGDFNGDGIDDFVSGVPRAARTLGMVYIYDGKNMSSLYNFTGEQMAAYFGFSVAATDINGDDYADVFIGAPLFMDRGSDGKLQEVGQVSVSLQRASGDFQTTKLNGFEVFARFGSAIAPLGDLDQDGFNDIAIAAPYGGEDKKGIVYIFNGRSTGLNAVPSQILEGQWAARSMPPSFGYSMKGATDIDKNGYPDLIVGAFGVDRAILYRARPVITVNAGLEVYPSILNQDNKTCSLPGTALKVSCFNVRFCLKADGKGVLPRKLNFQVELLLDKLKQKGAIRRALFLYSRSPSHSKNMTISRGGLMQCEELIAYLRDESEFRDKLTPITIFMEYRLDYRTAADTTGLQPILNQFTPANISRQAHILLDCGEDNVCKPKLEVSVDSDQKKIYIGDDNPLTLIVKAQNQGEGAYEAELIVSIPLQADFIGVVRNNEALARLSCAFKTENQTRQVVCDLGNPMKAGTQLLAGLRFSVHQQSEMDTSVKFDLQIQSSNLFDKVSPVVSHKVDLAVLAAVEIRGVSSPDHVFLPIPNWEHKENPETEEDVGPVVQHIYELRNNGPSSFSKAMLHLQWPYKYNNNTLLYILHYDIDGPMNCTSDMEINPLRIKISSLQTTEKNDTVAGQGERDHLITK
# Sequence (P06756 891-1048 limits assumed, stated change not applied): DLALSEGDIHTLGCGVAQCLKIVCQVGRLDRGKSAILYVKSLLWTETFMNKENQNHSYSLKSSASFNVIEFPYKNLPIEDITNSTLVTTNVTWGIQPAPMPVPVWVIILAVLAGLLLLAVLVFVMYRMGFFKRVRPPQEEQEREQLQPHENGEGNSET
# Sequence (P18564 22-788, stated change not applied): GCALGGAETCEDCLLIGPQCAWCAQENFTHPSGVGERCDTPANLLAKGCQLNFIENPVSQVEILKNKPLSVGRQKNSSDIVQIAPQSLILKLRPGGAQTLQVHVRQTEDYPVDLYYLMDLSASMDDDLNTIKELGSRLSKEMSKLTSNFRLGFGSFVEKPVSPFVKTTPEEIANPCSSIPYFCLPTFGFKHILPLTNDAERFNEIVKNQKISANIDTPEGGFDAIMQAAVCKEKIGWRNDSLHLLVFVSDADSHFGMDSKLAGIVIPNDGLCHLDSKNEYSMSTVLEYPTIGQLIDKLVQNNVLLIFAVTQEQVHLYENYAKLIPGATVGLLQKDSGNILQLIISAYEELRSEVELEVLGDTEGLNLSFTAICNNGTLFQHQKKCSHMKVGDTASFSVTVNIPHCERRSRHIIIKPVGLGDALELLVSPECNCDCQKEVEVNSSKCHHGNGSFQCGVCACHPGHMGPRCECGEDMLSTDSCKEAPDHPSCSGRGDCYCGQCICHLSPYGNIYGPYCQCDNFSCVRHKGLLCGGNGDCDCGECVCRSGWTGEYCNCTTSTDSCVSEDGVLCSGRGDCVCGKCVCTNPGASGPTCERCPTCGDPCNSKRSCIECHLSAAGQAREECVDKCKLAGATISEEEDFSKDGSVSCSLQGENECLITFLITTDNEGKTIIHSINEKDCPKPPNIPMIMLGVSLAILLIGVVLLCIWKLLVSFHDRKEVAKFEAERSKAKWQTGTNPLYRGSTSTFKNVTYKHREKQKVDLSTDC
# assayDetails: Level of binding of biotinylated peptides to A375Pβ6 cells by flow cytometry
# testContext: binding to A375Pβ6 at 100 nM, flow cytometry; commercial biotinylated A20FMDV2 = 1.00; mean of up to four experiments
Answer with the value's number alone.

Worked cases, A) Affinity: mean activity relative to biotinylated A20FMDV2 (100 nM) given:
{"substance": "H2N-NK(Biotin)VPNLRGDLQVLAQKVARt-OH [Peptide 20]", "result": 0.53}
{"substance": "H2N-NK (Biotin) VPNLRGDLQV[tert-butyl-alanine]AQKVART-OH [Peptide 11]", "result": 0.60}
{"substance": "H2N-NK(Biotin)VPNLRGDLQVLAQ-N-MeKVART-OH [Peptide 6]", "result": 0.37}
{"substance": "H2N-NK(Biotin)VPNLRGDLQV[adamantylglycine]AQKVART-OH [Peptide 15]", "result": 0.51}
{"substance": "N-NK(Biotin)VPNLRGDLQVLAQ[diaminobutyric acid]VART-OH [Peptide 4]", "result": 1.00}
{"substance": "H2N-NK(Biotin)VPNLRGDLQVLAQ[diaminopropionic acid]VART-OH [Peptide 5]", "result": 0.79}
{"substance": "H2N-NK(Biotin)VPNLRGDLQVLAQkVART-OH [Peptide 2]", "result": 1.11}
{"substance": "H2N-NK(Biotin)VPNLRGDLQVLAQKVART-OH [Peptide 1]", "result": 1.11}

Below: the item to evaluate.
Inquiry: Fill blank: measured A) Affinity: mean activity relative to biotinylated A20FMDV2 (100 nM) of the substance H2N-NK(Biotin)VPNLRGDLQV[2-amino-3-ethylpentanoic acid]AQKVART-OH [Peptide 13] is ____.
Reply text: 0.70

// provenance: patent US20200283532A1
